B1: Ribonuclease HI, P0A7Y4 (parent)
chain: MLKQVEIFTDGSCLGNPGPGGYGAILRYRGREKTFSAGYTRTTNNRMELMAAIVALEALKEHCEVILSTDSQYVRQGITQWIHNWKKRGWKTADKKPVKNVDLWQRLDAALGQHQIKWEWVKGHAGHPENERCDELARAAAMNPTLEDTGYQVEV

variants of: B1; settings: Escherichia coli (strain K12); pH 7.8; Thermal; CD; Sodium phosphate 20 mM; reversible: yes; structure 2RN2; whole UniProt chain shown
Tm values for the variants below.
measured.parameter: Tm

[
  {
    "mutation.id": "H62A H83A",
    "result": "51.5 °C"
  },
  {
    "mutation.id": "H83A",
    "result": "50 °C"
  },
  {
    "mutation.id": "H124A H127A",
    "result": "50.1 °C"
  },
  {
    "mutation.id": "H124A",
    "result": "50.3 °C"
  },
  {
    "mutation.id": "H62A H83A H124A H127A",
    "result": "51.7 °C"
  },
  {
    "mutation.id": "H114A",
    "result": "42.5 °C"
  },
  {
    "mutation.id": "H62A",
    "result": "51.2 °C"
  }
]

From: FireProtDB (doi:10.1016/0168-1656(93)90129-b)
